The values you see were collected from patent US7960349B2.

- system: Human GLP-1 Receptor (Homo sapiens)
- Construct: Full-length human glucagon-like peptide 1 receptor was stably expressed in CHO-K1 cells; expressed in transfected cells; host or cells: CHO-K1 (clone CHO-GLP1R-19)
- Sequence (P43220 24-463): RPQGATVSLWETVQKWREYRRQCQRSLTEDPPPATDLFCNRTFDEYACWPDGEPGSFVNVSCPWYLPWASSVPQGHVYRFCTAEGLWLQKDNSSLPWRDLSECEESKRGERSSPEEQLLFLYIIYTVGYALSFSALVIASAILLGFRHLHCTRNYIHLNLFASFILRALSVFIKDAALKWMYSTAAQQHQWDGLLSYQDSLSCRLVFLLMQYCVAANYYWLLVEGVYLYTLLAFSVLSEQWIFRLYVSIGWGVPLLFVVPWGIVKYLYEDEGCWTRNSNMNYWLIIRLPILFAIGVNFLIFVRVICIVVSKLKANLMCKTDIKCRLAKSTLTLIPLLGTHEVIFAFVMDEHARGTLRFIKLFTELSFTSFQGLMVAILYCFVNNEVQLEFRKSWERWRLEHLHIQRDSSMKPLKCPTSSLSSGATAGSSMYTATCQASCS
- assay: Cyclic AMP determination in CHO cells expressing human GLP-1 receptor
- Assay type: cell-based
- setupConditions: human GLP-1 receptor
Mean Hill for assorted molecules
Number, no unit, nothing else.

CCc1cc(O)ccc1-c1ccc(C[C@H](NC(=O)[C@H](CC(=O)O)NC(=O)[C@H](CO)NC(=O)[C@@H](NC(=O)[C@](C)(Cc2ccccc2F)NC(=O)[C@@H](NC(=O)CNC(=O)[C@H](CCC(=O)O)NC(=O)[C@]2(C)CCCN2C(=O)C(Cc2c[nH]cn2)OC)[C@@H](C)O)[C@@H](C)O)C(=O)N[C@@H](Cc2ccc(-c3ccccc3C)nc2)C(N)=O)cc1 (single isomer, unassigned) [SEQ ID NO: 174]; 2.7
CCc1cc(O)ccc1-c1ccc(C[C@H](NC(=O)[C@H](CC(=O)O)NC(=O)[C@H](Cc2c[nH]cn2)NC(=O)[C@@H](NC(=O)[C@](C)(Cc2ccccc2F)NC(=O)[C@@H](NC(=O)CNC(=O)[C@H](CCC(=O)O)NC(=O)[C@]2(C)CCCN2C(=O)C(Cc2c[nH]cn2)OC)[C@@H](C)O)[C@@H](C)O)C(=O)N[C@@H](Cc2ccc(-c3ccccc3C)nc2)C(N)=O)cc1 (single isomer, unassigned) [SEQ ID NO: 175]; 2.8

// next item, Mean Hill requested
I have this molecule here, CCc1cc(O)c(I)cc1-c1ccc(C[C@H](NC(=O)[C@H](CC(=O)O)NC(=O)[C@H](CO)NC(=O)[C@@H](NC(=O)C(C)(Cc2ccccc2F)NC(=O)[C@@H](NC(=O)CNC(=O)[C@H](CCC(=O)O)NC(=O)C2(C)CCCN2C(=O)[C@H](Cc2c[nH]cn2)NC(=O)OC)[C@@H](C)O)[C@@H](C)O)C(=O)N[C@@H](Cc2ccc(-c3ccccc3C)nc2)C(N)=O)cc1 (stereo partly drawn) , and I need its recorded Mean Hill. 1.5
